- target_or_test_system: T1, PUF4 RNA-binding domain (Saccharomyces cerevisiae, UniProt P25339 537-888)
- T1 sequence: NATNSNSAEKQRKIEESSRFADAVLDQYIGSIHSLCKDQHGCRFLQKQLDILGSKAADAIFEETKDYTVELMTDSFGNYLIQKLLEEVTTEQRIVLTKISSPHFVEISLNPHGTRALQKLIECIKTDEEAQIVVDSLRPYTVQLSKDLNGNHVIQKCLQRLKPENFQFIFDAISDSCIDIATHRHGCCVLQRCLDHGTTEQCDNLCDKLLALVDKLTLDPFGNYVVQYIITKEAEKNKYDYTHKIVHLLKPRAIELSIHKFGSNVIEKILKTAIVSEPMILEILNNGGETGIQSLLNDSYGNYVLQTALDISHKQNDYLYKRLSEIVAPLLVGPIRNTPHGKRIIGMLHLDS
- method_description: Mg; RNA-MaP; 20 mM Na-HEPES pH 7.4, 30 mM KOAc, 0.75 mM MgCl2, 0.1% Tween-20, 5% glycerol, 0.1 mg/mL BSA, 2 mM DTT; 25 C; 0.0125-409.6 nM protein
- experimental_parameters: tags: N-His6-TEV cleaved; C-SNAP kept, Cy3B-labelled; label: tethered on chip by stalled RNA polymerase
pKd: −log10 of the molar value.
Item-by-item account of pKd
experimental_endpoint: pKd

binder	experimental_endpoint	qualifier	quantitative_readout
UCUCUUCGUAUAUAUAAAUCUCUU (ssRNA) [Id_ii_S1_P3E.3_K3.2_C3.2_[T-1G]_H3.2_A3.1_F3.1_T3.2_[T9A]]	pKd	=	6.19
Ie_S2_P5E.1_K5.1_C5.1_H5.1_A5.1_F5.1_[+8CCTC]_T5.1 (ssRNA) RNA: UUUGAUUAAUAUGAUAUCGUUCUUUCUUGUAUUAUCCUCUAUUCUUUCUCGAUAUCAUAUUAAUCUUU	pKd	=	7.80
ACAAACCCUAUAUUAUUAACACAAAC (ssRNA) [Id_ii_S3_P5E.3_K5.2_C5.2_[T-1C]_H5.2_A5.1_F5.1_T5.2_[T11A]_[A12C]]	pKd	=	6.34
UCUCUUUGUACAAACUUCUCUU (ssRNA) [Ic_S1_P5E.1_K5.1_C5.1_H5.1_A5.1_[T5C]_[T6A]_F5.1_[T8A]_[T9C]_[A10T]_T5.1]	pKd	=	7.03
UCUCUUUGUAUAUGCUCUCUU (ssRNA) [Ib_S1_P4E.1_K4.1_C4.1_H4.1_A4.1_F4.1_[T8G]_[A9C]_T4.1]	pKd	=	7.57
UCUCUUCUUGUAUAUUAGCUCUCUU (ssRNA) [Id_ii_S1_P4E.2_K4.1_C4.2_H4.1_A4.1_F4.1_T4.2_[T11C]]	pKd	=	9.54
UCUCUUGUUAUAUAUUAAUUCUCUU (ssRNA) [Id_ii_S1_P4E.3_K4.2_C4.2_[C-2G]_H4.2_A4.1_F4.1_T4.2_[G10A]]	pKd	=	7.68
ACAAACCCACACUAUUAAUACAAAC (ssRNA) [Id_ii_S3_P4E.4_K4.3_C4.2_[T-1C]_H4.3_A4.1_F4.1_T4.2_[G10A]]	pKd	<	5.64
Ib_S2_P5E.1_K5.1_C5.1_H5.1_A5.1_[T5G]_F5.1_[T9A]_T5.1 (ssRNA) RNA: UUUGAUUAAUAUGAUAUCGUUCUUUCUUGUAGUAUAAUUCUUUCUCGAUAUCAUAUUAAUCUUU	pKd	=	8.26
UCUCUUCAUAUAUAUAUAUCUCUU (ssRNA) [Id_ii_S1_P3E.3_K3.2_C3.2_[T-1A]_H3.2_A3.1_F3.1_T3.2]	pKd	=	6.20
Ie_S2_P4E.1_K4.1_C4.1_H4.1_A4.1_[+7CCT]_F4.1_T4.1 (ssRNA) RNA: UUUGAUUAAUAUGAUAUCGUUCUUUCUUGUAUAUCCUUAUUCUUUCUCGAUAUCAUAUUAAUCUUU	pKd	=	7.97
Id_ii_S4_P5E.3_K5.2_C5.2_[C-2T]_[T-1C]_H5.2_A5.1_F5.1_T5.2_[T11C]_[A12G] (ssRNA) RNA: UUUGACAACUGAUCGUUCUUUCUUCUAUAUUAUUACGUUCUUUCUCGAUCAGUUGUCUUU	pKd	=	6.27
ACAAACCUUAUAUAUAUUACAAAC (ssRNA) [Id_ii_S3_P3E.3_K3.2_C3.2_H3.2_A3.1_F3.1_T3.2_[A10T]]	pKd	=	7.55

Data provenance: paper PMC9352680
